molecular target: Neuronal acetylcholine receptor; experiment: Tested for the binding affinity against neuronal nicotinic acetylcholine receptors from whole rat brain
Ki under 100 nM gets condition met, anything at or over 100 nM gets condition not met.

CN1C[C@@H](CF)C[C@H]1c1cccnc1 ... condition met
COCC1CCN(C)[C@@H]1c1cccnc1 (stereo not given in full) ... condition not met
CN1[C@@H](c2ccccc2)CC[C@H]1c1cccnc1 ... condition not met
CCCC[C@@H]1CC[C@@H](c2cccnc2)N1C ... condition not met

Prompt: Threshold test, Ki < 100 nM: CN1C[C@@H](Cc2ccccc2)C[C@H]1c1cccnc1
Response: condition not met

Prompt: Strictly below 100 nM: is that where Ki of C[C@@H]1CC[C@@H](c2cccnc2)N1C sits?
Response: condition not met

Prompt: Bench note: check whether CC[C@H]1C[C@@H](c2cccnc2)N(C)C1 shows Ki below 100 nM
Response: condition met

====

target: Neuronal acetylcholine receptor; assay: Tested for the binding affinity against neuronal nicotinic acetylcholine receptors from whole rat brain
assayMetric: Ki
Please append the unit to your numeric answer.

Use the examples below as a reference point.
C[C@H]1CC[C@@H](c2cccnc2)N1C ... 34.9 nM
CN1C[C@@H](CO)C[C@H]1c1cccnc1 ... 158 nM
CN1C[C@@H](CC#N)C[C@H]1c1cccnc1 ... 52 nM
CN1[C@H](c2ccccc2)CC[C@H]1c1cccnc1 ... 3350 nM
CN1C[C@@H](OS(C)(=O)=O)C[C@H]1c1cccnc1 ... 364 nM
CN1CCC(CF)[C@H]1c1cccnc1 (some centres not stated) ... 98.5 nM

Prompt: Which Ki reading was recorded for the molecule CC1CN(C)[C@H](c2cccnc2)C1C (some centres not stated) ?
Response: 96.4 nM

====

biological target: Neuronal acetylcholine receptor; experiment: Tested for the binding affinity against neuronal nicotinic acetylcholine receptors from whole rat brain
Give pKi for every item shown.
Answers are plain numbers, as −log10 of the molar value.

Some solved entries appear below for comparison.
CC(=O)O[C@H]1C[C@@H](c2cccnc2)N(C)C1 ... 6.99
CO[C@H]1C[C@@H](c2cccnc2)N(C)C1 ... 7.44
CN1C[C@H](CO)C[C@H]1c1cccnc1 ... 6.53

Hi! Can you tell me pKi for each of these molecules?
1. CSC[C@H]1C[C@@H](c2cccnc2)N(C)C1
2. CN1C[C@@H](O)C[C@H]1c1cccnc1
3. COC[C@H]1C[C@@H](c2cccnc2)N(C)C1
4. CN1C[C@H](C#N)C[C@H]1c1cccnc1
5. CN1CCC(CO)[C@H]1c1cccnc1 (stereo partly drawn)

Response:
1. 6.31
2. 7.56
3. 6.29
4. 7.09
5. 6.21
